# experimental system: UniProt:P04585
# experimental details: biochemical
# condition description: read-out: HIV-1 Protease % Inhib, dose 10.000 uM
endpoint: inhibition at 10 µM (%)

{"compound": "CCC(c1cccc(NC(=O)COc2cccc3ccccc23)c1)c1c(O)c2ccccc2oc1=O (centres unmarked)", "unit spec": "%", "numeric readout": 32.6}
{"compound": "CCC(CCc1ccccc1)c1c(O)c2ccccc2oc1=O (centres unmarked)", "unit spec": "%", "numeric readout": 74.9}
{"compound": "O=c1oc2c(c(O)c1C(c1cccc(NS(=O)(=O)c3ccc(-c4ccccn4)s3)c1)C1CC1)CCCCCC2 (centres unmarked)", "unit spec": "%", "numeric readout": 103}
{"compound": "O=c1oc2c(c(O)c1C(c1cccc(NS(=O)(=O)c3ccccc3C(F)(F)F)c1)C1CC1)CCCCCC2 (centres unmarked)", "unit spec": "%", "numeric readout": 97.4}
{"compound": "O=c1oc2ccccc2c(O)c1C(Cc1ccccc1)Cc1ccccc1", "unit spec": "%", "numeric readout": 92.7}
{"compound": "CCC(c1ccccc1)c1c(O)c2ccc(OCCOCCOC)cc2oc1=O (centres unmarked)", "unit spec": "%", "numeric readout": 82.8}
{"compound": "CCC(c1cccc(NC(=O)CCCNC(=O)OC(C)(C)C)c1)c1c(O)c2ccccc2oc1=O (centres unmarked)", "unit spec": "%", "numeric readout": 80.3}
{"compound": "CC(C)(C)OC(=O)NCCC(=O)Nc1cccc(C(c2c(O)c3c(oc2=O)CCCCCC3)C2CC2)c1 (centres unmarked)", "unit spec": "%", "numeric readout": 105}

====

# experimental system: HIV-1 protease (Human immunodeficiency virus type 1 group M subtype B, UniProt P04585)
# experimental details: biochemical
# condition description: read-out: HIV-1 FITC KI
Entries and their log10(Ki)
endpoint: log10(Ki) (log10 of the value in nM)

{"compound": "CS(=O)(=O)Nc1cccc(C(c2c(O)c3c(oc2=O)CCCCC3)C2CC2)c1 (stereo not shown)", "numeric readout": 2.07}
{"compound": "O=c1oc2c(c(O)c1C(c1ccccc1)C1CC1)CCCCCC2CC1CCCCO1 (stereo not shown)", "numeric readout": 2.08}
{"compound": "Cc1ccc(S(=O)(=O)n2cncc2C[C@H](NC(=O)OC(C)(C)C)C(=O)Nc2cccc(C(c3c(O)c4c(oc3=O)CCCCCC4)C3CC3)c2)cc1 (stereo partly shown)", "numeric readout": 1.02}
{"compound": "CC(C)(C)OC(=O)N[C@@H](Cc1c[nH]cn1)C(=O)Nc1cccc(C(c2c(O)c3c(oc2=O)CCCCCC3)C2CC2)c1 (stereo partly shown)", "numeric readout": 0.54}
{"compound": "CCCC(c1ccccc1)c1c(O)c2c(oc1=O)CCCCCC2 (stereo not shown)", "numeric readout": 1.45}
{"compound": "O=c1oc2c(c(O)c1C(c1cccc(NS(=O)(=O)c3ccccc3F)c1)C1CC1)CCCCCC2 (stereo not shown)", "numeric readout": 1.03}
{"compound": "O=C(CCn1ccc2ccccc21)Nc1cccc(C(c2c(O)c3c(oc2=O)CCCCCC3)C2CC2)c1 (stereo not shown)", "numeric readout": 1.15}

====

# experimental system: HIV-1 protease (Human immunodeficiency virus type 1 group M subtype B, UniProt P04585)
# experimental details: biochemical
# condition description: read-out: HIV-1 Protease % Inhib, dose 10.000 uM
Parameter threshold = 90%. Response is Condition met when inhibition at 10 µM meets or exceeds it, else Condition not met.

{"compound": "CC(C)C(c1cccc(NS(=O)(=O)c2cn(C)cn2)c1)c1c(O)c2c(oc1=O)CCCCCC2 (centres unmarked)", "class": "Condition met"}
{"compound": "O=c1oc2c(c(O)c1C(c1ccccc1)C1CC1)CCCCCC2CC1CO1 (centres unmarked)", "class": "Condition met"}
{"compound": "CCC(c1cccc(NC(=O)CCC2CCCCC2)c1)c1c(O)c2ccccc2oc1=O (centres unmarked)", "class": "Condition not met"}
{"compound": "CCCC(c1cccc(C)c1)c1c(O)c2ccccc2oc1=O (centres unmarked)", "class": "Condition not met"}
{"compound": "CC(C)(C)OC(=O)CC(c1ccccc1)c1c(O)c2ccccc2oc1=O (centres unmarked)", "class": "Condition not met"}
{"compound": "COC(=O)c1cccc(S(=O)(=O)Nc2cccc(C(c3c(O)c4c(oc3=O)CCCCCC4)C3CC3)c2)c1 (centres unmarked)", "class": "Condition met"}
{"compound": "O=c1oc2ccccc2c(O)c1C1CCOc2ccccc21 (centres unmarked)", "class": "Condition not met"}
{"compound": "CCC(c1cccc(NC(=O)C2CCCN2C(=O)OC(C)(C)C)c1)c1c(O)c2ccccc2oc1=O (centres unmarked)", "class": "Condition not met"}
{"compound": "O=c1oc2c(c(O)c1C(c1ccccc1)C1CC1)CCCCCC2CC1CCCOC1 (centres unmarked)", "class": "Condition met"}
{"compound": "O=c1oc2c(c(O)c1C(c1cccc(NS(=O)(=O)c3cccs3)c1)C1CC1)CCCCCC2 (centres unmarked)", "class": "Condition met"}
{"compound": "O=c1oc2c(c(O)c1C(c1cccc(NS(=O)(=O)c3cccc(O)c3)c1)C1CC1)CCCCCC2 (centres unmarked)", "class": "Condition met"}
{"compound": "CCC(c1ccccc1OC(C)=O)c1c(O)c2ccccc2oc1=O (centres unmarked)", "class": "Condition not met"}
{"compound": "O=c1oc2c(c(O)c1C(c1cccc(NS(=O)(=O)CCCCl)c1)C1CC1)CCCCCC2 (centres unmarked)", "class": "Condition met"}
{"compound": "O=c1oc2c(c(O)c1C(c1cccc(NS(=O)(=O)c3ccc(NO)cc3)c1)C1CC1)CCCCCC2 (centres unmarked) [Example 348 (Second Title Compound)]", "class": "Condition met"}
{"compound": "CC(C)c1ccc(S(=O)(=O)Nc2cccc(C(c3c(O)c4c(oc3=O)CCCCCC4)C3CC3)c2)cc1 (centres unmarked)", "class": "Condition met"}
{"compound": "CCC(c1ccccc1)c1c(O)c2c(oc1=O)CCCC2 (centres unmarked)", "class": "Condition not met"}

====

# experimental system: HIV-1 protease (Human immunodeficiency virus type 1 group M subtype B, UniProt P04585)
# experimental details: biochemical
# condition description: read-out: HIV-1 Protease % Inhib, dose 1.100 uM
Entries and their inhibition at 1.1 µM
endpoint: inhibition at 1.1 µM (%)

{"compound": "C[C@@H](NC(=O)OC(C)(C)C)C(=O)Nc1cccc(C(c2c(O)c3c(oc2=O)CCCCCC3)C2CC2)c1 (stereo partly drawn)", "numeric readout": 81.3}
{"compound": "Nc1ccc(S(=O)(=O)Nc2cccc(C(c3c(O)c4c(oc3=O)CCCCCC4)C3CC3)c2)cc1 (stereo not drawn)", "numeric readout": 103}
{"compound": "CC(C)(C)OC(=O)N[C@H](Cc1c[nH]cn1)C(=O)Nc1cccc(C(c2c(O)c3c(oc2=O)CCCCCC3)C2CC2)c1 (stereo partly drawn)", "numeric readout": 107}
{"compound": "O=c1oc2c(c(O)c1[C@@H](c1cccc(NS(=O)(=O)c3cccc4cccnc34)c1)C1CC1)CCCCCC2", "numeric readout": 99}
{"compound": "O=c1oc2c(c(O)c1C(c1cccc(NS(=O)(=O)c3ccc(-c4ccon4)s3)c1)C1CC1)CCCCCC2 (stereo not drawn)", "numeric readout": 103}
{"compound": "O=c1oc2c(c(O)c1C(c1cccc(NS(=O)(=O)c3ccc(F)cc3F)c1)C1CC1)CCCCCC2 (stereo not drawn)", "numeric readout": 105}
{"compound": "CCc1ccc(S(=O)(=O)Nc2cccc(C(c3c(O)c4c(oc3=O)CCCCCC4)C3CC3)c2)cc1 (stereo not drawn)", "numeric readout": 110}
{"compound": "CCCC(c1cccc(NS(=O)(=O)c2ccc(C#N)cc2)c1)c1c(O)c2c(oc1=O)CCCCCC2 (stereo not drawn) [Example 378]", "numeric readout": 112}
{"compound": "O=C(NCc1ccc(C(c2c(O)c3c(oc2=O)CCCCCC3)C2CC2)s1)OCc1ccccc1 (stereo not drawn)", "numeric readout": 58}
{"compound": "O=c1oc2c(c(O)c1C(c1cccc(NS(=O)(=O)c3cc(Br)c(Br)s3)c1)C1CC1)CCCCCC2 (stereo not drawn)", "numeric readout": 97.7}
{"compound": "CCC(O)C1CCCCCc2c1oc(=O)c(C(c1ccccc1)C1CC1)c2O (stereo not drawn)", "numeric readout": 104}
{"compound": "CC(C)(C)OC(=O)N[C@@H](Cc1c[nH]cn1)C(=O)Nc1cccc(C(c2c(O)c3c(oc2=O)CCCCCC3)C2CC2)c1 (stereo partly drawn)", "numeric readout": 94.5}
{"compound": "CCNC(=O)Nc1cccc(C(c2c(O)c3c(oc2=O)CCCCCC3)C2CC2)c1 (stereo not drawn)", "numeric readout": 62.3}
{"compound": "CC(C)(C)OC(=O)N1CCC[C@H]1C(=O)Nc1cccc(C(c2c(O)c3c(oc2=O)CCCCCC3)C2CC2)c1 (stereo partly drawn)", "numeric readout": 73.1}
{"compound": "CN(C)S(=O)(=O)Nc1cccc(C(c2c(O)c3c(oc2=O)CCCCCC3)C2CC2)c1 (stereo not drawn)", "numeric readout": 74.2}
{"compound": "NC(=O)c1ccc(S(=O)(=O)Nc2cccc(C(c3c(O)c4c(oc3=O)CCCCCC4)C3CC3)c2)cc1 (stereo not drawn) [Example 365A]", "numeric readout": 115}
{"compound": "O=c1oc2c(c(O)c1C(c1cccc(NS(=O)(=O)c3ccc(Cl)c(Cl)c3)c1)C1CC1)CCCCCC2 (stereo not drawn)", "numeric readout": 112}
{"compound": "O=c1oc2c(c(O)c1C(c1cccc(NS(=O)(=O)c3ccc(C(F)(F)F)cc3)c1)C1CC1)CCCCCC2 (stereo not drawn)", "numeric readout": 92}
{"compound": "O=c1oc2c(c(O)c1[C@H](c1cccc(NS(=O)(=O)c3ccc(S(=O)(=O)c4ccccc4)s3)c1)C1CC1)CCCCCC2", "numeric readout": 103}
{"compound": "CC(C)C(c1cccc(N)c1)c1c(O)c2c(oc1=O)CCCCCC2 (stereo not drawn)", "numeric readout": 110}
{"compound": "COCCOCCOCCOc1ccc(S(=O)(=O)Nc2cccc(C(c3c(O)c4c(oc3=O)CCCCCC4)C3CC3)c2)cc1 (stereo not drawn)", "numeric readout": 128}
{"compound": "O=c1oc2c(c(O)c1C(c1cccs1)C1CC1)CCCCCC2 (stereo not drawn)", "numeric readout": 84.5}
{"compound": "O=C(CCn1ccc2ccccc21)Nc1cccc(C(c2c(O)c3ccccc3oc2=O)C2CC2)c1 (stereo not drawn)", "numeric readout": 46.4}
{"compound": "CCCC(c1ccccc1)c1c(O)c2c(oc1=O)CCCCCC2 (stereo not drawn)", "numeric readout": 96}
{"compound": "O=c1oc2c(c(O)c1C(c1cccc(NS(=O)(=O)c3ccc(Cl)cc3Cl)c1)C1CC1)CCCCCC2 (stereo not drawn)", "numeric readout": 92.4}
{"compound": "O=c1oc2c(c(O)c1C(c1ccc(CCO)s1)C1CC1)CCCCCC2 (stereo not drawn)", "numeric readout": 89.5}
{"compound": "CCC1CCCCc2c1oc(=O)c(C(c1ccccc1)C1CC1)c2O (stereo not drawn)", "numeric readout": 71.5}
{"compound": "Cc1c(Cl)cccc1S(=O)(=O)Nc1cccc(C(c2c(O)c3c(oc2=O)CCCCCC3)C2CC2)c1 (stereo not drawn)", "numeric readout": 86.4}
{"compound": "O=c1oc2c(c(O)c1C(c1cccc(NS(=O)(=O)c3cccc4nonc34)c1)C1CC1)CCCCCC2 (stereo not drawn)", "numeric readout": 123}
{"compound": "CCCC(c1cccc(NS(=O)(=O)c2ccc(F)cc2)c1)c1c(O)c2c(oc1=O)CCCCCC2 (stereo not drawn)", "numeric readout": 96.6}
